Values were extracted from paper PMC10569036.

test: shake flask on a mixture of 185; loss from the water phase only; LC-QTOF peak areas; conditions: room
readout: log partition n-octane / HPLC water, unbuffered, traces of methanol / DMSO (log10)
Report the value in log10 with no unit label.

# query: log partition n-octane / HPLC water, unbuffered, traces of methanol / DMSO of entry CO/C=C(/C(=O)OC)c1ccccc1Oc1cc(Oc2ccccc2C#N)ncn1
0.8047

# query: log partition n-octane / HPLC water, unbuffered, traces of methanol / DMSO of entry CCCCOC(=O)C(C)Oc1ccc(Oc2ccc(C(F)(F)F)cn2)cc1 (stereo not drawn)
2.349

# query: log partition n-octane / HPLC water, unbuffered, traces of methanol / DMSO of entry CC(C)N1C(=O)c2ccccc2NS1(=O)=O
-1.602

# query: log partition n-octane / HPLC water, unbuffered, traces of methanol / DMSO of entry C[C@H](CCC(=O)O)[C@H]1CC[C@H]2[C@@H]3CC[C@@H]4C[C@H](O)CC[C@]4(C)[C@H]3CC[C@]12C
-1.699

# query: log partition n-octane / HPLC water, unbuffered, traces of methanol / DMSO of entry Cc1oncc1C(=O)Nc1ccc(C(F)(F)F)cc1
0.112

# query: log partition n-octane / HPLC water, unbuffered, traces of methanol / DMSO of entry Cc1cc(C)nc(NS(=O)(=O)c2ccc(N)cc2)n1
-1.319

----------
assay: shake flask on a mixture of 185; loss from the water phase only; LC-QTOF peak areas; details: room
readout: log partition cyclohexane / HPLC water, unbuffered, traces of methanol / DMSO
Please state the value followed by its unit.

# query: log partition cyclohexane / HPLC water, unbuffered, traces of methanol / DMSO of entry Cc1cc(C)nc(NS(=O)(=O)c2ccc(N)cc2)n1
-0.9757 log10

# query: log partition cyclohexane / HPLC water, unbuffered, traces of methanol / DMSO of entry CCC(C)(CC)c1cc(NC(=O)c2c(OC)cccc2OC)on1
1.696 log10

# query: log partition cyclohexane / HPLC water, unbuffered, traces of methanol / DMSO of entry CN(C1CCCCC1)S(=O)(=O)c1ccccc1N
-0.5397 log10

# query: log partition cyclohexane / HPLC water, unbuffered, traces of methanol / DMSO of entry OCCN(CCO)c1ccccc1
-1.946 log10

# query: log partition cyclohexane / HPLC water, unbuffered, traces of methanol / DMSO of entry CCCCNS(=O)(=O)c1ccc(C)cc1
0.988 log10

# query: log partition cyclohexane / HPLC water, unbuffered, traces of methanol / DMSO of entry CCCOC(=O)c1ccc(C(=O)OCCC)nc1
2.074 log10

# query: log partition cyclohexane / HPLC water, unbuffered, traces of methanol / DMSO of entry C[C@H](CCC(=O)O)[C@H]1CC[C@H]2[C@@H]3CC[C@@H]4C[C@H](O)CC[C@]4(C)[C@H]3CC[C@]12C
-1.544 log10

# query: log partition cyclohexane / HPLC water, unbuffered, traces of methanol / DMSO of entry Oc1c(Cl)cc(Cl)c(Cl)c1Cc1c(O)c(Cl)cc(Cl)c1Cl
2.027 log10

# query: log partition cyclohexane / HPLC water, unbuffered, traces of methanol / DMSO of entry CCCCOC(=O)C(C)Oc1ccc(Oc2ccc(C(F)(F)F)cn2)cc1 (stereo not drawn)
2.387 log10

# query: log partition cyclohexane / HPLC water, unbuffered, traces of methanol / DMSO of entry c1coc(-c2nc3ccccc3[nH]2)c1
-0.8199 log10

# query: log partition cyclohexane / HPLC water, unbuffered, traces of methanol / DMSO of entry O=C(c1ccccc1)c1ccc(O)cc1O
-0.7702 log10

# query: log partition cyclohexane / HPLC water, unbuffered, traces of methanol / DMSO of entry CCOc1ccc2[nH]cc(C(=O)NCc3ccccc3)c(=O)c2n1
-1.713 log10
